System: HT-29
protocol_summary: NCI tumour cell line growth inhibition, 48 h
Activity calls are given as the source filed them. Cut-off read from the data, not from the text of the source: active = GI50 up to about 1.1 µM and inactive = higher.
Pick one and only one: active, inactive

In this assay, the call recorded for CSC1=NN(c2ccccc2)C(=O)C1=C(SC)SC was what?
inactive

Assay outcome for O=C(c1ccccc1)c1ccc(-n2c3ccccc3c3ccc4c(c32)C(=O)C=CC4=O)cc1 : what was it?
inactive

How was CN(C)CCOc1ccc(-c2c(Oc3ccccc3)c(=O)oc3ccccc23)cc1 classified in this test?
inactive

----------
Test system: M14
protocol_summary: NCI tumour cell line growth inhibition, 48 h
Active and inactive are the calls of the source. Cut-off read from the data, not from the text of the source: active = GI50 up to about 1.1 µM and inactive = higher.
Form entry, call: pick from active, inactive

{"compound": "O=C1c2cccc3cccc(c23)C(=O)N1CCCNOCCONCCCN1C(=O)c2cccc3cccc(c23)C1=O", "system_tested": "M14", "group": "inactive"}
{"compound": "COC1=CC(=O)c2c(cc(COP(=O)(OCC3OC(n4cc(F)c(=O)[nH]c4=O)CC3O)N(C)CCCCCl)n2C)C1=O (stereo not given)", "system_tested": "M14", "group": "active"}
{"compound": "COc1ccc2[nH]c(Cl)c(/C=C3/C(=O)Nc4cc(C)c(OC)cc43)c2c1", "system_tested": "M14", "group": "inactive"}
{"compound": "CC#CC(O)(C(=O)OC1CC2CCC(C1)N2C)C1CCCC1 (stereo not given)", "system_tested": "M14", "group": "inactive"}

Give the logged outcome of this assay for the following compound: CS(=O)(=O)OC1CCN(C2(c3cccc(O)c3)CCCCC2)CC1
inactive

----------
Test system: SK-MEL-5
protocol_summary: NCI tumour cell line growth inhibition, 48 h
Activity calls are given as the source filed them. Rule as the data show it: active = GI50 up to about 1.1 µM and inactive = higher.
Returns: one label drawn from active, inactive

Illustrative cases are given below, each with its answer.
{"molecule": "CCOC(=O)NC/C=C/CO", "group": "inactive"}
{"molecule": "Nc1c(Cl)ncnc1NCC1(CO)CCC1", "group": "inactive"}

Recorded test outcome, item O=C(CC1(O)C(=O)Nc2ccccc21)c1cccc(O)c1 (centres undefined)
inactive

Returns: the outcome recorded for CC(C(=O)NCNC(=O)c1ccccc1)C(=O)NCc1ccccc1 (centres undefined) in this assay.
inactive

Check the results log: what was the call for CCn1cc(C(c2ccc(Cl)cc2)n2ccnc2)c2cc(Br)ccc21 (centres undefined) ?
inactive

Call for entry COC(=O)[C@@H]1c2[nH]c3ccccc3c2C[C@@H]2c3ccccc3NC(=O)[C@@H]21 :
inactive

Hi, do you know how OCc1nnn2c1CCC2 came out in this test?
inactive

Tell me the recorded outcome of this test for COc1ccc2c(c1)C1c3ccccc3CCN1CCC2 (centres undefined) .
inactive

Dear all, I need the recorded test outcome for Nc1ccc2nc3c(nc2c1)C(=O)c1ccccc1-3 , thank you.
inactive

Given O=C1N[C@H]2c3c(Cl)sc(Cl)c3[C@@H](O)[C@H]2O1 , state the outcome it received in this test.
inactive

Identify the outcome logged in this assay for the molecule shown: N=C(N)N1CCC(N2CCOCC2)CC1
inactive

Outcome logged for CC(C)CCCC(C)[C@H]1CC[C@H]2[C@@H]3CC[C@H]4C[C@@H](CCC=C(c5cc(Cl)c(O)c(C(=O)OC(C)(C)C)c5)c5cc(Cl)c(O)c(C(=O)OC(C)(C)C)c5)CC[C@]4(C)[C@H]3CC[C@]12C (some centres undefined) in this assay:
inactive

Hello, I am checking results. What call was entered for CC(=O)C(N1CCCCC1)C(O)(C(F)(F)F)C(F)(F)F (centres undefined) ?
inactive

Just curious, what result did Cc1ccc(C)c(NC(=O)C(=O)Nn2c(S)nc3ccccc3c2=O)c1 get here?
inactive

Could you check what this test reported for N#CCCN(CCN(C(=O)Nc1ccccc1)c1ccccc1)C(=O)Nc1ccccc1 ?
inactive

Assay result, entry COc1cccc2c1OC(c1cccc3ccccc13)C([N+](=O)[O-])=C2 (centres undefined) — outcome?
inactive

Given CCCO[C@@H]1[C@@H](OC(C)=O)[C@@H](OC(C)=O)C(C)(C)/C=C/[C@H](C)C(=O)[C@@]2(OC(C)=O)C[C@@](C)(OC(C)=O)[C@H](OC(C)=O)[C@@H]2[C@H]2OC(=O)CC[C@@]12OC(=O)c1ccccc1 , state the outcome it received in this test.
inactive

Hi, do you know how COc1ccc2[nH]c(Cl)c(/C=C3/C(=O)Nc4cc(C)c(OC)cc43)c2c1 came out in this test?
inactive

Which outcome was entered for the molecule O=C1c2cccc3cc([N+](=O)[O-])cc(c23)C(=O)N1CCNCCNCCNCCN1C(=O)c2cccc3cc([N+](=O)[O-])cc(c23)C1=O in this test?
active
